These entries and their values trace back to ChEMBL document CHEMBL5104129.

Consider the following molecules; for each one, report its IC50.
Biological target: 11-beta-hydroxysteroid dehydrogenase 1 (Homo sapiens)
Sequence (P28845 whole entry): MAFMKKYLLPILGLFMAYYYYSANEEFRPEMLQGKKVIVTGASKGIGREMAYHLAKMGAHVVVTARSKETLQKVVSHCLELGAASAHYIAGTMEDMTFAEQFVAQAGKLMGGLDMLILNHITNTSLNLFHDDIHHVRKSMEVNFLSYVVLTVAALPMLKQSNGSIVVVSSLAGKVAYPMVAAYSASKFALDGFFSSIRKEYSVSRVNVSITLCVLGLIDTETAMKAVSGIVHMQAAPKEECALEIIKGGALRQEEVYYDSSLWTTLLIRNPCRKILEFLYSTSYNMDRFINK
Test: Inhibition of 11beta-HSD1 (unknown origin) using 3H-cortisone as substrate by scintillation proximity assay

Give me IC50 for each of these molecules, listed below.
1. O=C1N(C23CC4CC(CC(C4)C2)C3)CCC12CCCN2c1ccc(C(F)(F)F)cn1 (stereo not given)
2. CCNC(=O)c1ccc(-c2cccc(CN3C[C@H](O)C[C@]34CCN(C3CCCCC3)C4=O)c2)cn1
3. CCN1C[C@@H](O)C[C@]12CCN(C1CCCCC1)C2=O
4. CC(C1CCCCC1)N1C[C@H](O)C[C@]12CCN(C1CCCCC1)C2=O (stereo not given in full)
5. O=C1N(C2CCCCC2)CCC12CCCN2C1CCC1 (stereo not given)
6. O=C1N(C2CCCCC2)CCC12CCCN2CC1CCOC1 (stereo not given)

Out:
1: > 1000 nM; 2: 227 nM; 3: 15 nM; 4: 5 nM; 5: > 1000 nM; 6: 460 nM

Below are some molecules; for each one, tell me its IC50.
1. O=C1N(C2CCCCC2)CC[C@]12C[C@@H](O)CN2C1CCCC1
2. O=C1N(C2CCCC2)CCC12CCCN2Cc1ccc(Cl)cc1 (stereo not given)
3. CC(C)NC(=O)c1ccc(-c2ccc(CN3C[C@H](O)C[C@]34CCN(C3CCCCC3)C4=O)cc2F)cn1
4. O=C1N(C2CCCCC2)CCC12CCCN2CC1CCCC1 (stereo not given)

Out:
1. 351 nM
2. 26 nM
3. 5 nM
4. 36 nM
